Exercise: for every item that follows, state its recorded EC50.
TARGET_OR_TEST_SYSTEM: T1, full-length human SIRPαV2 (CAA71403.1) on cells (human, UniProt P78324 31-504)
T1 construct: one molecule for CHO-K1 and Expi-CHO transfectants (CAA71403.1) and for endogenous V2 on THP-1 cells and on CD14+ monocytes of V2/V2 donors; also called CHO-hSIRPαV2; αV2 WT
T1 sequence (P78324 other isoform, or with tags, fused parts or gaps): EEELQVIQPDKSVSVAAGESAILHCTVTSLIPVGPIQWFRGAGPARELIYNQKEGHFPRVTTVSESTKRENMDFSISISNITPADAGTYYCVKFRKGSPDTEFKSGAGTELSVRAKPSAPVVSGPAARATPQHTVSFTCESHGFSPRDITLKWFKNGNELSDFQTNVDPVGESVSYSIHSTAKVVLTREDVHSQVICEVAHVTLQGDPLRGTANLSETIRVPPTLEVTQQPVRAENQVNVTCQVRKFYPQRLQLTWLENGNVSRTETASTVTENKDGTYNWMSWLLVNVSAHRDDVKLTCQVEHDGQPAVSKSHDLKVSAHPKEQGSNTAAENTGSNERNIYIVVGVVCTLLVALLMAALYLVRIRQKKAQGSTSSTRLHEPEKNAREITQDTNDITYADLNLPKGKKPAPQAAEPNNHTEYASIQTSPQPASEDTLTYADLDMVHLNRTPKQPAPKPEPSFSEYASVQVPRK
METHOD_NOTES: flow cytometry, Expi-CHO cells
One number for each entry, in nM.

Take each entry in turn and give its EC50.
1. Antibody C (antibody, human IgG1, kappa, L234A L235A, V domains shown) VH: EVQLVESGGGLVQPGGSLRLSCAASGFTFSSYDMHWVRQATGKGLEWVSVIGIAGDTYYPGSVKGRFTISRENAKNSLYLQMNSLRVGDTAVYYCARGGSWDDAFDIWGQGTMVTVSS VL: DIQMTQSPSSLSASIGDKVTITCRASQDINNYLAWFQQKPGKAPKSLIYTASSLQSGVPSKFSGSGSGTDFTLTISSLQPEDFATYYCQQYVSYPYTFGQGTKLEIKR
2. Antibody E22 (antibody, human IgG1, kappa, L234A L235A, V domains shown) VH: QVQLQESGPGLVKPSETLSLTCTVSGGSIRDYYWSWIRQPPGKGLEWIGFIYYNGRTFYQSSLKSRVTISLDTSKNQFSLKMTSVTAADTAVYYCARVRAYSGIGLDGTDVWGQGTTVTVSS VL: DIVMTQSPLSLPVTPGEPASISCRSSQSLLYSTGYTYLDWYLQRPGQSPQLLIYGGSSRASGVPDRFSGSGSGTDFTLKISRVEAEDVGVFYCGQALQTPLTFGQGTKVEIKR
3. Anti-SIRPα antibody KWAR23 (antibody, V domains shown) VH: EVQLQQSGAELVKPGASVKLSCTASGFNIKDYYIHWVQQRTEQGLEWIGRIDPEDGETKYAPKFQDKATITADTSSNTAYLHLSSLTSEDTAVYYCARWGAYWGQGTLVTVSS VL: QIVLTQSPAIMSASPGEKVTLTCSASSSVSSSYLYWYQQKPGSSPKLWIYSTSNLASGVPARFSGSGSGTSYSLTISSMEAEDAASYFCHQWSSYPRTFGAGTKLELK
4. Antibody B (antibody, human IgG1, kappa, L234A L235A, V domains shown) VH: QVQLVQSGAEVKKPGASVKVSCKASGYTFTGNYMHWVRQAPGQGLEWMGWINPNSGGTNYAQKFQGRVTMTRDTSISTAYMELSRLRSDDTAVYYCVSGSGWYENYYYYGMDVWGQGTTVTVSS VL: DIQMTQSPSSVSASVGDRVTITCRASQGISSWLAWYQQKPGKAPKLLIYAESSLQSGVPSRFSGSGSGTDFTLTISSLQPEDFATYYCQQANSFPLTFGGGTKVEIKR

A.
0.2
0.4
0.2
3.6
